// data source = patent US9701662B2

tested on: Lolium perenne (LOLPE); assay: Post-emergence glasshouse herbicide test; assay type: in vivo; details: post-emergence (sprayed after 8 days cultivation), 1000 g/h, evaluated after 13 days, five point scale
Please respond with reported percentage damage caused to the plant, LOLPE, POST Application for every item in the list.

Worked set:
INSERT INTO results (smiles_record, observed_result) VALUES
  ('Cn1nnnc1NC(=O)c1nn(C)c(=O)c(-c2ccccc2C(F)(F)F)c1Cl', '5 (5=80-100%)'),
  ('Cn1nnnc1NC(=O)c1nn(C)c(=O)c(-c2ccccc2)c1Cl', '4 (4=60-79%)');

Here are 4 compounds. What values of percentage damage caused to the plant, LOLPE, POST Application were reported for them?
1. Cn1nnnc1NC(=O)c1nn(C)c(=O)c(-c2ccc(C(F)(F)F)cc2)c1Cl
2. CCCCNc1c(C(=O)Nc2nnnn2C)nn(C)c(=O)c1C
3. Cn1nnnc1NC(=O)c1nn(C)c(=O)c(-c2ccc(Cl)c(Cl)c2)c1Cl
4. CCOc1c(C(=O)Nc2nnnn2C)nn(C)c(=O)c1C

Ans.
["5 (5=80-100%)", "1 (1=0-19%)", "5 (5=80-100%)", "4 (4=60-79%)"]

Here are 3 compounds. What values of percentage damage caused to the plant, LOLPE, POST Application were reported for them?
1. COc1ccc(-c2c(Cl)c(C(=O)Nc3nnnn3C)nn(C)c2=O)cc1OC
2. COc1cccc(-c2c(Cl)c(C(=O)Nc3nnnn3C)nn(C)c2=O)c1
3. COc1ccc(-c2c(Cl)c(C(=O)Nc3nnnn3C)nn(C)c2=O)cc1

Ans.
1. 5 (5=80-100%)
2. 5 (5=80-100%)
3. 5 (5=80-100%)

###

system: Lolium perenne (LOLPE); test: Post-emergence glasshouse herbicide test; assay type: in vivo; conditions: post-emergence (sprayed after 8 days cultivation), 1000 g/h, evaluated after 13 days, five point scale
MEASURED_ENDPOINT: percentage damage caused to the plant, LOLPE, POST Application

Worked set:
INSERT INTO results (molecule, observed_result) VALUES
  ('CCOc1c(C(=O)Nc2nnnn2C)nn(C)c(=O)c1-c1ccc(Cl)c(Cl)c1 [Compound 1.032]', '4 (4=60-79%)'),
  ('Cc1c(Cl)c(C(=O)Nc2nnnn2C)nn(C)c1=O [Compound 1.007]', '5 (5=80-100%)'),
  ('Cn1nnnc1NC(=O)c1nn(C)c(=O)c(-c2cccc(C(F)(F)F)c2)c1Cl [Compound 1.030]', '5 (5=80-100%)'),
  ('Cn1nnnc1NC(=O)c1nn(C)c(=O)c(-c2ccc(Cl)cc2)c1Cl [Compound 1.013]', '5 (5=80-100%)'),
  ('Cc1ccc(-c2c(Cl)c(C(=O)Nc3nnnn3C)nn(C)c2=O)cc1 [Compound 1.015]', '5 (5=80-100%)'),
  ('CCOc1c(C(=O)Nc2nnnn2C)nn(C)c(=O)c1-c1ccccc1 [Compound 1.031]', '4 (4=60-79%)'),
  ('Cn1nnnc1NC(=O)c1nn(C)c(=O)c(-c2ccc(Cl)cc2Cl)c1Cl [Compound 1.011]', '5 (5=80-100%)'),
  ('Cc1ccc(C)c(-c2c(Cl)c(C(=O)Nc3nnnn3C)nn(C)c2=O)c1 [Compound 1.020]', '5 (5=80-100%)');

Entry Cn1nnnc1NC(=O)c1nn(C)c(=O)c(-c2cccc(Cl)c2)c1Cl [Compound 1.012] — recorded percentage damage caused to the plant, LOLPE, POST Application = 5 (5=80-100%)
